# Test system: dengue serotype 4 (DENV4)
# METHOD SUMMARY: DENV-specific sandwich ELISA (MAbs 15A5 and 6H6) on treated DENV4
# Assay type: binding, dengue virus
# CONDITION SUMMARY: 0.01% H2O2, 1 μM CuCl2, 20 hours, room temperature; vs standard conditions
ATTRIBUTE MEASURED: ELISA signal / antigenicity with added salt during H2O2/CuCl2 inactivation

COMPOUND: O=S(=O)([O-])[O-].[Mg+2] [magnesium sulfate]
REPORTED: improved antigenicity
--
COMPOUND: O=P([O-])([O-])OP(=O)([O-])OP(=O)([O-])[O-].[Na+].[Na+].[Na+].[Na+].[Na+] [sodium triphosphate]
REPORTED: increased ELISA signals
--
COMPOUND: O=P1([O-])OP(=O)([O-])OP(=O)([O-])O1.[Na+].[Na+].[Na+] [sodium trimetaphosphate]
REPORTED: increased ELISA signals
--
COMPOUND: O=S(=O)([O-])[O-].[Na+].[Na+] [sodium sulfate]
REPORTED: improved antigenicity

Value source: patent US12419947B2
